These data points were gathered from PubChem BioAssay AID1963985.

test system: 252836-082-R-J2-PDC tumor spheroids, viability; assay: Anticancer human tumor 252836-082-R-J2-PDC patient-derived head and neck squamous cell carcinoma cell line growth inhibition [PI3K]; conditions: second compound 10 µM; first compound 0.00316 µM; stronger effect = lower value; spheroids with HUVEC and MSC
recorded-endpoint: viability, T/C (%)
Respond with the bare value in %.

See these solved cases before continuing.
compound	viability, T/C, %
CCN1CCN(Cc2ccc(Nc3ncc(F)c(-c4cc(F)c5nc(C)n(C(C)C)c5c4)n3)nc2)CC1 + Cc1nc(NC(=O)N2CCCC2C(N)=O)sc1-c1ccnc(C(C)(C)C(F)(F)F)c1	35.4
CC(=O)c1c(C)c2cnc(Nc3ccc(N4CCNCC4)cn3)nc2n(C2CCCC2)c1=O + CC(Nc1ncnc2nc[nH]c12)c1cc2cccc(Cl)c2c(=O)n1-c1ccccc1	69.2
Cn1ncnc1[C@H]1c2n[nH]c(=O)c3cc(F)cc(c23)N[C@@H]1c1ccc(F)cc1 + Cc1nc(NC(=O)N2CCCC2C(N)=O)sc1-c1ccnc(C(C)(C)C(F)(F)F)c1	33.6
CC(C)n1nc(-c2ccc3oc(N)nc3c2)c2c(N)ncnc21 + Cc1nc(NC(=O)N2CCCC2C(N)=O)sc1-c1ccnc(C(C)(C)C(F)(F)F)c1	29.6
Cn1ncnc1[C@H]1c2n[nH]c(=O)c3cc(F)cc(c23)N[C@@H]1c1ccc(F)cc1 + CC(Nc1ncnc2nc[nH]c12)c1cc2cccc(Cl)c2c(=O)n1-c1ccccc1	58.8
CC(C)n1nc(-c2ccc3oc(N)nc3c2)c2c(N)ncnc21 + CC(Nc1ncnc2nc[nH]c12)c1cc2cccc(Cl)c2c(=O)n1-c1ccccc1	68.1
CC(=O)c1c(C)c2cnc(Nc3ccc(N4CCNCC4)cn3)nc2n(C2CCCC2)c1=O + Cc1nc(NC(=O)N2CCCC2C(N)=O)sc1-c1ccnc(C(C)(C)C(F)(F)F)c1	25.9

Proceed to the following item.
## Task // fetch 252836-082-R-J2-PDC tumor spheroids, viability viability, T/C for CCN1CCN(Cc2ccc(Nc3ncc(F)c(-c4cc(F)c5nc(C)n(C(C)C)c5c4)n3)nc2)CC1 + CC(Nc1ncnc2nc[nH]c12)c1cc2cccc(Cl)c2c(=O)n1-c1ccccc1
## Result 56

====

test system: 252836-082-R-J2-PDC tumor spheroids, viability; experiment: Anticancer human tumor 252836-082-R-J2-PDC cell line growth inhibition [PI3K]; details: second compound 0.0316 µM; first compound 0.001 µM; stronger effect = lower value; spheroids with HUVEC and MSC;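 note: spheroids exposed to agents for seven days before readout; percent of vehicle DMSO control viability so 100% = untreated growth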
In plain terms, low viability, T/C, meaning strictly below 80%, gives 1, and everything else gives 0.

Reference set (8 entries):
> print(dat)
                                   molecule  assigned.label
1  CC(C)n1nc(-c2ccc3oc(N)nc3c2)c2c(N)ncnc21 + COc1c(OCCCN2CCOCC2)ccc2c3n(c(=NC(=O)c4cnc(N)nc4)nc12)CCN3               1
2  CC(=O)c1c(C)c2cnc(Nc3ccc(N4CCNCC4)cn3)nc2n(C2CCCC2)c1=O + Cc1nc(NC(=O)N2CCCC2C(N)=O)sc1-c1ccnc(C(C)(C)C(F)(F)F)c1               0
3  Cn1ncnc1[C@H]1c2n[nH]c(=O)c3cc(F)cc(c23)N[C@@H]1c1ccc(F)cc1 + CC(Nc1ccc2c(c1)OCCn1cc(N3C(=O)OCC3C(F)F)nc1-2)C(N)=O               0
4  CC(C)n1nc(-c2ccc3oc(N)nc3c2)c2c(N)ncnc21 + CC(Nc1ccc2c(c1)OCCn1cc(N3C(=O)OCC3C(F)F)nc1-2)C(N)=O               1
5  CC(=O)c1c(C)c2cnc(Nc3ccc(N4CCNCC4)cn3)nc2n(C2CCCC2)c1=O + CC(Nc1ncnc2nc[nH]c12)c1cc2cccc(Cl)c2c(=O)n1-c1ccccc1               0
6  CC(=O)c1c(C)c2cnc(Nc3ccc(N4CCNCC4)cn3)nc2n(C2CCCC2)c1=O + CC(Nc1ccc2c(c1)OCCn1cc(N3C(=O)OCC3C(F)F)nc1-2)C(N)=O               1
7  Cn1ncnc1[C@H]1c2n[nH]c(=O)c3cc(F)cc(c23)N[C@@H]1c1ccc(F)cc1 + Cc1nc(NC(=O)N2CCCC2C(N)=O)sc1-c1ccnc(C(C)(C)C(F)(F)F)c1               0
8  Cn1ncnc1[C@H]1c2n[nH]c(=O)c3cc(F)cc(c23)N[C@@H]1c1ccc(F)cc1 + COc1c(OCCCN2CCOCC2)ccc2c3n(c(=NC(=O)c4cnc(N)nc4)nc12)CCN3               1

Could you now look at the following molecule, please?
## Task Quick check: viability, T/C of CC(C)n1nc(-c2ccc3oc(N)nc3c2)c2c(N)ncnc21 + CC(Nc1ncnc2nc[nH]c12)c1cc2cccc(Cl)c2c(=O)n1-c1ccccc1 under 80%?
## Result 0
